Test system: Plasmodium falciparum
Protocol: GSK_TCMDC: Inhibition of Plasmodium falciparum 3D7 in whole red blood cells, using parasite LDH activity as an index of growth. Test compounds present at 2uM
Type: functional
Assay endpoint: Inhibition (%)

# Compound, Number
rows = [
    ("Cc1cc(N[C@@H](CC(C)C)C(=O)NCc2cccs2)nc(NCCc2ccc(F)cc2)n1.O=C(O)C(F)(F)F", 100),
    ("CCOc1cc(-c2nnc3[nH]c(=O)n(C)c(=O)c3n2)ccc1OC(C)C", 97),
    ("CC(C)COc1ccc(Cl)cc1Cc1ccc(-c2nc3cc(N4CCN(C)CC4)ccc3[nH]2)o1.Cl", 100),
    ("COc1ccc(CNC2CCN(C)CC2)cc1-c1ccc(S(=O)(=O)NCc2cccnc2)s1.O=C(O)C(F)(F)F", 100),
    ("CC(CN(C)C)C(=O)Nc1cccc(-c2ccc(-c3nc4ccccc4[nH]3)s2)c1 (centres undefined)", 100),
    ("CCCCOc1cc(OC)c2ccccc2c1CCNCCCCNCCc1c(OCCCC)cc(OC)c2ccccc12.CS(=O)(=O)O", 82),
    ("Cl.Nc1ncc(-c2ccccc2)cc1-c1nc2cc(Cl)c(F)cc2[nH]1", 100),
    ("N#Cc1cccc(C(=O)Nc2cccc(-c3ccc(C(=O)NCCCN4CCOCC4)cc3)c2)c1", 96),
    ("COC(=O)c1cccc(CNCc2cccc(-c3ccc(-c4nc5cccc(C)c5[nH]4)cc3)c2)c1.O=C(O)C(F)(F)F", 100),
    ("COc1ccc(NC(=O)/C=C/c2ccccc2Cl)cc1OCCN1CCC(N2CCN(C)CC2)CC1", 100),
    ("COc1cc(C(C)C)ccc1C1CCN(CCCCNC(=O)c2ccc(NC(=O)c3ccc(Cl)cc3)cc2)CC1.O=C(O)/C=C/C(=O)O", 98),
    ("CCCNC(=O)C1Cc2cc(OC)c(OC)cc2C2(N1)C(=O)N(Cc1cccc(OC)c1)c1ccccc12 (centres undefined)", 91),
    ("O=C(OCc1ccccn1)c1nc2ccccc2[nH]1", 92),
    ("CCNc1cc(C)nc(Nc2ccc(NC(=O)c3ccco3)cc2)n1", 95),
    ("Oc1c(CN2CCCC(C(F)(F)F)C2)cc(Cl)c2ccccc12 (centres undefined)", 94),
    ("FC(F)(F)c1ccc2c(NN=Cc3cccc(Cl)c3)ccnc2c1", 93),
    ("CC(C)(C)C1CC(=O)CC2C(=O)N(C3CCCCC3)C(=O)C21 (centres undefined)", 97),
    ("CC(C)N(Cc1ccc(-c2ccc(C(F)(F)F)cc2)cc1)C(=O)Cn1c(SCc2cccc(F)c2F)cc(=O)c2cc(CN3CCCCC3)ccc21.Cl", 100),
    ("Cc1nc(C)c(-c2ccc(Oc3ccc(Cl)cc3Cl)cc2)c(O)c1Br", 98),
]
